Recorded values, source ChEMBL document CHEMBL1144424.

Listed next: entries and their corresponding pIC50.
- Test Target: Mu-type opioid receptor (Cavia porcellus, UniProt P97266)
- Sequence (P97266 whole entry): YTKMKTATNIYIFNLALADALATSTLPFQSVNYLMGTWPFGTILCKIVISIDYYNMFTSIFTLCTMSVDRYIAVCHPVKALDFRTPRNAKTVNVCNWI
- Test Summary: In vitro agonistic activity against opioid receptor mu of guinea pig ileum
Schema: pIC50 number; meaning minus log10 of the concentration expressed in molar units.

Lab note: measured pIC50 of C=CCO[C@@]12CCC(=O)[C@@H]3Oc4c(O)ccc5c4[C@@]31CCN(C)[C@@H]2C5 was 7.75

Lab note: measured pIC50 of CO[C@@]12CCC(=O)[C@]3(C)Oc4c(O)ccc5c4[C@@]31CCN(C)[C@@H]2C5 was 8.21

Lab note: measured pIC50 of CCO[C@@]12CCC(=O)[C@]3(C)Oc4c(O)ccc5c4[C@@]31CCN(CCc1ccccc1)[C@@H]2C5 was 8.72

Lab note: measured pIC50 of CN1CC[C@]23c4c5ccc(O)c4O[C@H]2C(=O)CC[C@@]3(OCc2c(Cl)cccc2Cl)[C@H]1C5 was 6.00

Lab note: measured pIC50 of CN1CC[C@]23c4c5ccc(O)c4O[C@@]2(C)C(=O)CC[C@@]3(OCc2ccccc2)[C@H]1C5 was 9.30

Lab note: measured pIC50 of CN1CC[C@]23c4c5ccc(O)c4O[C@H]2C(=O)CC[C@@]3(OCc2cccc3ccccc23)[C@H]1C5 was 9.05

Lab note: measured pIC50 of CO[C@@]12CCC(=O)[C@@H]3Oc4c(O)ccc5c4[C@@]31CCN(C)[C@@H]2C5 was 8.70

Lab note: measured pIC50 of CN1CC[C@]23c4c5ccc(O)c4O[C@H]2C(=O)CC[C@@]3(OCc2ccccc2)[C@H]1C5 was 9.05

###

Listed next: entries and their corresponding Ratio.
- Test Summary: Relative agonistic activity against opioid receptor delta in mouse vas deferens and opioid receptor mu in guinea pig ileum
- Type: functional
Answer field: number only, no words.

A selection of reference data follows.
                                     smiles  measurement_kind  assay_result
0  CN1CC[C@]23c4c5ccc(O)c4O[C@H]2C(=O)CC[C@@]3(OCc2cccc3ccccc23)[C@H]1C5             Ratio           0.9
1  CCO[C@@]12CCC(=O)[C@]3(C)Oc4c(O)ccc5c4[C@@]31CCN(CCc1ccccc1)[C@@H]2C5             Ratio           5.1
2  C=CCO[C@@]12CCC(=O)[C@@H]3Oc4c(O)ccc5c4[C@@]31CCN(C)[C@@H]2C5             Ratio           3.6

Then there is this compound:
Lab note: measured Ratio of CN1CC[C@]23c4c5ccc(O)c4O[C@H]2C(=O)CC[C@@]3(OCc2c(Cl)cccc2Cl)[C@H]1C5 was 0.2

###

Listed next: entries and their corresponding pIC50.
- Test Target: Delta-type opioid receptor (Mus musculus)
- Sequence (P32300 whole entry): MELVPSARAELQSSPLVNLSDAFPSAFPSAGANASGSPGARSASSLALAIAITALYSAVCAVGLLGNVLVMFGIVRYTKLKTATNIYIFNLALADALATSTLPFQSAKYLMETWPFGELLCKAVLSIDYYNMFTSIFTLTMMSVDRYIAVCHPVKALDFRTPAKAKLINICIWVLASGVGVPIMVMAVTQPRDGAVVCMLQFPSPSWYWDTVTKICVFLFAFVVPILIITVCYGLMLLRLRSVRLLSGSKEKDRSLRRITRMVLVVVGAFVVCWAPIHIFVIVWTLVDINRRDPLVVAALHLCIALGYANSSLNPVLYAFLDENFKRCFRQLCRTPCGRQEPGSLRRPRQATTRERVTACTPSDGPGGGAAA
- Test Summary: In vitro agonistic activity against opioid receptor delta of mouse vas deferens
- Assay type: functional, tissue-based
Schema: pIC50 number; meaning minus log10 of the concentration expressed in molar units.

A selection of reference data follows.
>>> print(df.to_string())
                                     smiles  assay_result
0  CN1CC[C@]23c4c5ccc(O)c4O[C@@]2(C)C(=O)CC[C@@]3(OCc2ccccc2)[C@H]1C5          8.64
1  C=CCO[C@@]12CCC(=O)[C@@H]3Oc4c(O)ccc5c4[C@@]31CCN(C)[C@@H]2C5          7.20
2  CO[C@@]12CCC(=O)[C@]3(C)Oc4c(O)ccc5c4[C@@]31CCN(C)[C@@H]2C5          7.61
3  CN1CC[C@]23c4c5ccc(O)c4O[C@H]2C(=O)CC[C@@]3(OCc2ccccc2)[C@H]1C5          8.82

Lab note: measured pIC50 of CCO[C@@]12CCC(=O)[C@]3(C)Oc4c(O)ccc5c4[C@@]31CCN(CCc1ccccc1)[C@@H]2C5 was 8.01

Lab note: measured pIC50 of CN1CC[C@]23c4c5ccc(O)c4O[C@H]2C(=O)CC[C@@]3(OCc2cccc3ccccc23)[C@H]1C5 was 9.10

Lab note: measured pIC50 of CN1CC[C@]23c4c5ccc(O)c4O[C@H]2C(=O)CC[C@@]3(OCc2c(Cl)cccc2Cl)[C@H]1C5 was 6.68

Lab note: measured pIC50 of CO[C@@]12CCC(=O)[C@@H]3Oc4c(O)ccc5c4[C@@]31CCN(C)[C@@H]2C5 was 7.52
